Data origin: PubChem BioAssay AID1159554

protocolDetails: P. falciparum Dd2 growth inhibitors, primary screen, SYBR Green fluorescence, single dose replicates (AID 1159554)
experimentalSetup: 72 h, at 10 µM, stronger effect = lower value
About 2,100 (2.2%) of roughly 94,000 compounds were called active. Only a selection was taken, and actives are over-represented in it overall.
Task for the reader: assign each of the following compounds its reported activity change.

Find the measured activity change of COc1cccc(C#Cc2cnc3c(c2)C(=O)N([C@H](C)CO)C[C@@H](C)[C@@H](CN(C)C(=O)C2CCC2)O3)c1 and report it.
-84.4% (active)

Specify reported activity change for the compound shown: COc1ccc2c3c(n(C)c2c1)[C@H](CO)NCC31CN(Cc2cc(F)ccc2F)C1
23% (inactive)

Give the measured activity change for COc1ccc(-c2cnc3c(c2)C(=O)N([C@H](C)CO)C[C@@H](C)[C@H](CN(C)C(=O)Cc2ccncc2)O3)cc1
-84.6% (active)

Answer with reported activity change of Cc1ccc(S(=O)(=O)Nc2ccc3c(c2)C(=O)N([C@H](C)CO)C[C@@H](C)[C@H](CN(C)Cc2ccccc2)OCCCC[C@H](C)O3)cc1
-43.7% (inactive)

Specify reported activity change for the compound shown: COc1cccc(C#Cc2cnc3c(c2)C(=O)N([C@@H](C)CO)C[C@H](C)[C@@H](CN(C)C(C)=O)O3)c1
-15.1% (inactive)

Kindly indicate its recorded activity change. Item: O=C(Cc1ccccc1)N1C[C@@H]2[C@H](c3ccccc31)[C@@H](CO)N2C(=O)C1CC1
-0.357% (inactive)

Give the reported value of activity change for this record: C/C=C/c1ccc([C@@H]2[C@H](CO)N(S(=O)(=O)Cc3ccccc3)C23CN(C(=O)C2CCOCC2)C3)cc1
-52% (inactive)

Specify measured activity change for COc1ccccc1-c1ccc2c(c1)O[C@@H](CN(C)C)[C@H](C)CN([C@H](C)CO)S2(=O)=O .
-28.9% (inactive)

Determine from records and report activity change for CCCC#Cc1ccc2c(c1)O[C@@H](CN(C)C(=O)c1ccccc1F)[C@H](C)CN([C@H](C)CO)S2(=O)=O
-85.1% (active)

Fill in activity change for record CO[C@H]1CN(C)C(=O)c2cc(NC(=O)c3nc4ccccc4s3)ccc2OC[C@H](C)N(Cc2cccnc2)C[C@@H]1C
-15.4% (inactive)

Quote activity change reported for C[C@H](CO)N1C[C@H](C)[C@H](CN(C)S(C)(=O)=O)Oc2ncc(C3=CCCC3)cc2C1=O please.
25.5% (inactive)

Complete the entry with activity change for C[C@H](CO)N1C[C@H](C)[C@H](CN(C)C(=O)C2CCCCC2)Oc2ncc(C#Cc3cccc(F)c3)cc2C1=O
-86.4% (active)

Name the recorded activity change of the compound listed here: COc1cccc(-c2ccc([C@@H]3[C@@H](CO)N(C(=O)c4ccccn4)[C@H]3C#N)cc2)c1
-11.6% (inactive)

Item CCCN1C[C@H](C)[C@@H](OC)CN(C)C(=O)c2ccc(NC(=O)c3cnccn3)cc2OC[C@H]1C : provide activity change
13.8% (inactive)

Hello, please tell me recorded activity change for this one: C[C@@H]1CN([C@H](C)CO)S(=O)(=O)c2ccc(C#CC3CC3)cc2O[C@H]1CN(C)Cc1ccccc1F
-16.8% (inactive)

Read the entry C[C@@H]1CN([C@H](C)CO)C(=O)Cc2cc(NC(=O)Nc3ccc4c(c3)OCO4)ccc2O[C@H]1CN(C)Cc1ccc(C(=O)O)cc1 and write its reported activity change.
21.4% (inactive)

Report activity change for COc1cccc(C#Cc2cnc3c(c2)C(=O)N([C@@H](C)CO)C[C@H](C)[C@@H](CN(C)C(=O)C2CCC2)O3)c1
-74.6% (inactive)

Please give measured activity change of the following entry: O=C(c1cccc(F)c1)N1C[C@H]2[C@@H](c3ccccc31)[C@@H](CO)N2C(=O)Cc1ccccc1
0.269% (inactive)

Consider the compound C[C@@H]1CN([C@@H](C)CO)S(=O)(=O)c2ccc(C#Cc3ccc(F)cc3)cc2O[C@H]1CN(C)S(C)(=O)=O . State its measured activity change.
-67.9% (inactive)

Please give the documented activity change of O=C(c1ccccc1)N1CC(=O)N2[C@@H](CO)[C@H](c3ccc(C#CC4CC4)cc3)[C@@H]2C1
16.5% (inactive)

Read the entry COc1ccc(S(=O)(=O)Nc2ccc3c(c2)CC(=O)N([C@@H](C)CO)C[C@H](C)[C@@H](CN(C)Cc2ccc(C(=O)O)cc2)O3)cc1 and write its reported activity change.
22.3% (inactive)
